Below is a list of entries, each paired with its recorded IC50 value.
# assay.target: KPC-2 β-lactamase (Class A carbapenemase) (Klebsiella pneumoniae)
# Construct: made in house; host or cells: E. coli BL21(DE3)
# Sequence (Q9F663 25-293, looked up): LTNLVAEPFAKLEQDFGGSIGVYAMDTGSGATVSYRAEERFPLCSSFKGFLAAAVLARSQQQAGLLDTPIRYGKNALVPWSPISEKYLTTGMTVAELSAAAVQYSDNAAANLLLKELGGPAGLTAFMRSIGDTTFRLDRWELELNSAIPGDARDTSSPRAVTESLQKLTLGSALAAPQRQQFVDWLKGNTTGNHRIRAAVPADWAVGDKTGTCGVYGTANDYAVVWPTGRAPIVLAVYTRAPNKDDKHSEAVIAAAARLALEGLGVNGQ
# method: β-Lactamase inhibition, KPC-2
# Assay type: biochemical
# assay.setup: imipenem substrate, 300 nm; 15 min preincubation at 37° C., PBS pH 7.4
# Procedure: For SHV-5, Kpc-2, p99AmpC and OXA-1 β-lactamases, E. coli BL21(DE3) bacterial cells carrying expression plasmids (expressed as native untagged proteins) for the individual β-lactamases were grown in 1 L of Superbroth (Teknova Inc. Hollister, Calif.) supplemented with 100 μg/ml kanamycin selection and 1×5052 (0.5% glycerol, 0.05% glucose and 0.2% α-lactose) at 35° C. for 18-20 hours. […]
quantity.kind: IC50

>  <compound>
NC1CCN(CCC(=O)N[C@H]2Cc3cccc(C(=O)O)c3OB2O)CC1

>  <reported>
100 to 1000 nM

$$$$
>  <compound>
NCCCN1CCC(CC(=O)N[C@H]2Cc3cccc(C(=O)O)c3OB2O)CC1

>  <reported>
< 100 nM

$$$$
>  <compound>
O=C(CC1CCNCC1)N[C@H]1Cc2cccc(C(=O)O)c2OB1O

>  <reported>
100 to 1000 nM

$$$$
>  <compound>
N[C@H]1CCCN(CC(=O)N[C@H]2Cc3cccc(C(=O)O)c3OB2O)C1

>  <reported>
100 to 1000 nM

$$$$
>  <compound>
NC1CCN(CC(=O)N[C@H]2Cc3cccc(C(=O)O)c3OB2O)CC1O (stereo partly drawn)

>  <reported>
100 to 1000 nM

$$$$
>  <compound>
O=C(CCN1CCNCC1)N[C@H]1Cc2cccc(C(=O)O)c2OB1O

>  <reported>
< 100 nM

$$$$
>  <compound>
O=C(CN[C@@H]1CCNC1)N[C@H]1Cc2cccc(C(=O)O)c2OB1O

>  <reported>
< 100 nM

$$$$
>  <compound>
NCCC(=O)NC1CCN(CC(=O)N[C@H]2Cc3cccc(C(=O)O)c3OB2O)CC1

>  <reported>
100 to 1000 nM

$$$$
>  <compound>
NC1CCN(CC(=O)N[C@H]2Cc3cccc(C(=O)O)c3OB2O)CC1

>  <reported>
< 100 nM

$$$$
>  <compound>
NCC1CCN(CC(=O)N[C@H]2Cc3cccc(C(=O)O)c3OB2O)CC1

>  <reported>
< 100 nM

$$$$
>  <compound>
O=C(CN1CCN(c2nccs2)CC1)N[C@H]1Cc2cccc(C(=O)O)c2OB1O

>  <reported>
1000 to 10000 nM

$$$$
>  <compound>
O=C(CN1CCC(O)CC1)N[C@H]1Cc2cccc(C(=O)O)c2OB1O

>  <reported>
< 100 nM

$$$$
>  <compound>
CN1CCC(C(=O)N[C@H]2Cc3cccc(C(=O)O)c3OB2O)(N(C)C)CC1

>  <reported>
< 100 nM

$$$$
>  <compound>
CNC1CCN(CC(=O)N[C@H]2Cc3cccc(C(=O)O)c3OB2O)CC1O (stereo partly drawn)

>  <reported>
100 to 1000 nM

$$$$
>  <compound>
NCCN1CCN(CC(=O)N[C@H]2Cc3cccc(C(=O)O)c3OB2O)CC1

>  <reported>
100 to 1000 nM

$$$$
>  <compound>
O=C(O)c1cccc2c1OB(O)[C@@H](NC(=O)C1CNCCN1)C2 (stereo partly drawn)

>  <reported>
< 100 nM

$$$$
>  <compound>
CN1CCC(CC(=O)N[C@H]2Cc3cccc(C(=O)O)c3OB2O)CC1

>  <reported>
< 100 nM

$$$$
>  <compound>
NC1(C(=O)N[C@H]2Cc3cccc(C(=O)O)c3OB2O)CCNCC1

>  <reported>
< 100 nM

$$$$
